biological target: panel of more than 300 wild-type and mutant kinases (313 kinase panel) (Homo sapiens, UniProt P51451); experiment: Kinase profiling in a biochemical assay panel (mobility shift assays and ELISA), %-inhibition at 1 μM; selectivity entropy; settings: kinase BLK; 1 μM compound
Sequence (P51451 whole entry, change not shown): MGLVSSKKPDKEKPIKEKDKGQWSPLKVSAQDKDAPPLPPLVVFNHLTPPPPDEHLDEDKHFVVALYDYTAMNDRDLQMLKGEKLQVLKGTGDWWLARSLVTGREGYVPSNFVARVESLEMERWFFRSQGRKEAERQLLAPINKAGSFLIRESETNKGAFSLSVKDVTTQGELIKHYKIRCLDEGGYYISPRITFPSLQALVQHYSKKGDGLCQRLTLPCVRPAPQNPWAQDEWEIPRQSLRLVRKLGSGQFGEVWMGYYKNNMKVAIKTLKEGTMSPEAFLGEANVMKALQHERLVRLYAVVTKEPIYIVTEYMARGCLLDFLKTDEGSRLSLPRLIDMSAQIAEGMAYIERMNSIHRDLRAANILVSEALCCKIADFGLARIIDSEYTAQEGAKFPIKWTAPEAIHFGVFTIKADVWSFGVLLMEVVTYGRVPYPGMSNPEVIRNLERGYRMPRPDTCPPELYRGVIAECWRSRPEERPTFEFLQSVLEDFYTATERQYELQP
measure: %-inhibition, BLK (%)
Entry rule: numbers only, all in %.

Cc1ccc(C(=O)Nc2ccc(CN3CCN(C)CC3)c(C(F)(F)F)c2)cc1C#Cc1cnc2cccnn12 [ponatinib] | 97
CCN(CC)CCNC(=O)c1c(C)[nH]c(/C=C2\C(=O)Nc3ccc(F)cc32)c1C [sunitinib] | 96
COc1cc2c(Nc3ccc(Br)cc3F)ncnc2cc1OCC1CCN(C)CC1 [vandetanib] | 89
CCCS(=O)(=O)Nc1ccc(F)c(C(=O)c2c[nH]c3ncc(-c4ccc(Cl)cc4)cc23)c1F [vemurafenib] | 52

Proceeding to the next compound to report its %-inhibition, BLK.
Entry under review: COc1cc2nccc(Oc3ccc(NC(=O)C4(C(=O)Nc5ccc(F)cc5)CC4)cc3)c2cc1OC [cabozantinib] . Reported %-inhibition, BLK?
100

----------
target: panel of more than 300 wild-type and mutant kinases (313 kinase panel) (Homo sapiens); test: Kinase profiling in a biochemical assay panel (mobility shift assays and ELISA), %-inhibition at 1 μM; selectivity entropy; conditions: kinase RSK3; 1 μM
Measured %-inhibition of RSK3, listed per entry for reference.
# number only, unit % dropped from output

// query %-inhibition of RSK3 value for entry COc1cc2c(Nc3ccc(Br)cc3F)ncnc2cc1OCC1CCN(C)CC1 [vandetanib]
9

----------
%-inhibition, CDK2/CycA2 values by entry
biological target: panel of more than 300 wild-type and mutant kinases (313 kinase panel) (Homo sapiens); assay: Kinase profiling in a biochemical assay panel (mobility shift assays and ELISA), %-inhibition at 1 μM; selectivity entropy; details: kinase CDK2/CycA2; 1 μM compound
Please state the figure in %; there is no need to write the unit.

The following molecules have reported results that may help.
CNC(=O)c1cc(Oc2ccc(NC(=O)Nc3ccc(Cl)c(C(F)(F)F)c3)c(F)c2)ccn1 [regorafenib] | -12
Cc1ccc(Nc2nccc(N(C)c3ccc4c(C)n(C)nc4c3)n2)cc1S(N)(=O)=O [pazopanib] | -5
COc1cc2nccc(Oc3ccc(NC(=O)C4(C(=O)Nc5ccc(F)cc5)CC4)cc3)c2cc1OC [cabozantinib] | -9
CO[C@H]1C[C@@H]2CC[C@@H](C)[C@@](O)(O2)C(=O)C(=O)N2CCCC[C@H]2C(=O)O[C@H]([C@H](C)C[C@@H]2CC[C@@H](OCCO)[C@H](OC)C2)CC(=O)[C@H](C)/C=C(\C)[C@@H](O)[C@@H](OC)C(=O)[C@H](C)C[C@H](C)/C=C/C=C/C=C/1C [everolimus] | -11
Cc1nc(Nc2ncc(C(=O)Nc3c(C)cccc3Cl)s2)cc(N2CCN(CCO)CC2)n1 [dasatinib] | 5

Can you look up the measured %-inhibition, CDK2/CycA2 of Cc1ccc(C(=O)Nc2ccc(CN3CCN(C)CC3)c(C(F)(F)F)c2)cc1C#Cc1cnc2cccnn12 [ponatinib] for me?
-9

What do you get for CC(=O)Nc1cccc(-n2c(=O)n(C3CC3)c(=O)c3c(Nc4ccc(I)cc4F)n(C)c(=O)c(C)c32)c1 [trametinib] ?
24

Same thing, different molecule: N#CC[C@H](C1CCCC1)n1cc(-c2ncnc3[nH]ccc23)cn1 [ruxolitinib]
2.48

What would you report for O=S(=O)(c1cccc2cnccc12)N1CCCNCC1 [fasudil] ?
22

Same question for COc1cc2c(Nc3ccc(Br)cc3F)ncnc2cc1OCC1CCN(C)CC1 [vandetanib] please.
-8
